Biological target: UniProt P14902
Sequence (P14902 whole entry): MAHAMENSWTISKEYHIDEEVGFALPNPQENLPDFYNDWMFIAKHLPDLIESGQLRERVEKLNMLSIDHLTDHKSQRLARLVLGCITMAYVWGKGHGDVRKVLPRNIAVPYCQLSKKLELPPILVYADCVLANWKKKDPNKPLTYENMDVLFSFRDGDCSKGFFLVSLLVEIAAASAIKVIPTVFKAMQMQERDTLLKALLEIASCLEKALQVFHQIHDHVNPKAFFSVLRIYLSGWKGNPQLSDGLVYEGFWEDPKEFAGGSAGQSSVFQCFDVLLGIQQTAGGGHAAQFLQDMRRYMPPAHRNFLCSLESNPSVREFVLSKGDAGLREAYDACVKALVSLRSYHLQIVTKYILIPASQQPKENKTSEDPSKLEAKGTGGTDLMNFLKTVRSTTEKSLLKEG
Assay: Assessment of human IDO-1 inhibitory activity in Hela cells (Interferon-gamma stimulated HeLa cells, Ehrlich reagent, absorbance 490 nm)
Format: cell-based
Design: endogenous in cells; host or cells: HeLa cells stimulated with interferon-gamma
Conditions: Hela Human IDO-1 cellular assay
Protocol: Exemplary compounds were tested for inhibition of IDO activity. Assessment of Human IDO-1 Inhibitory Activity in Hela Cells HeLa cells were seeded at 20,000 cells per 30 μL per well with RPMI/phenol red free media containing 10% FBS in a 384-well tissue culture plate (black with clear bottoms). […] Compound treatment was stopped by adding 5 μl trichloroacetic acid to a final concentration of 3%. […] Absorbance at 490 nm was measured on Envision plate reader. […]
pIC50: −log10 of the molar value.
Listing: pIC50 of selected molecules

Observe how each entry below is paired with its result.
Molecule	Assay target	pIC50
CCCN(c1ccc([C@@H](COC)CC(=O)O)cc1Nc1cnc(OCC)nc1)C1CCOCC1 (single isomer, unassigned)	UniProt P14902	> 7.30
CCC(CC(=O)O)c1ccc(N2CCOC[C@H]2C(C)C)c(Nc2ccc(C#N)cc2)c1 (single isomer, unassigned)	UniProt P14902	> 8.30
CCC(CC(=O)O)c1cc(F)c(N(CC)C2CCOCC2)c(Nc2cnc(OCC3CC3)nc2)c1 (single isomer, unassigned) [Example 141]	UniProt P14902	> 8.30
CCOc1ncc(Nc2cc(C(CC)CC(=O)O)ccc2N2CCN(C(=O)OC(C)(C)C)CC2)cn1 (single isomer, unassigned)	UniProt P14902	< 7.30
CCCN(c1ccc(C(CC)CC(=O)O)cc1Nc1ccc(C#N)cc1)C1CCS(=O)(=O)CC1 (single isomer, unassigned) [Example 12 Enantiomer 1]	UniProt P14902	> 8.30
C[C@@H]1CN(c2ccc(C(CC(=O)O)C3CC3)cc2NC(=O)Nc2ccc(Cl)cc2F)C[C@H](C)O1 (single isomer, unassigned)	UniProt P14902	< 7.30

Input: Fill in pIC50 for CCC(CC(=O)O)c1ccc(N2CCOCC2)c(Nc2ccc(C#N)cc2)c1 (single isomer, unassigned) [Example 6 Enantiomer 2] tested with UniProt P14902.
Output: > 7.30

Input: Fill in pIC50 for CCC(CC(=O)O)c1ccc(N(CC)C2CCOC2)c(NC(=O)Nc2ccc(Cl)cc2F)c1 (single isomer, unassigned) [Example 946 D1] tested with UniProt P14902.
Output: > 7.30

Input: Fill in pIC50 for CCC(CC(=O)O)c1ccc(N2C[C@@H]3C[C@H]2CN3CC(F)F)c(Nc2ccc(C#N)cc2)c1 (single isomer, unassigned) tested with UniProt P14902.
Output: < 7.30

###

Biological target: UniProt:P14902
Assay: Assessment of human IDO-1 inhibitory activity in Hela cells (Interferon-gamma stimulated HeLa cells, Ehrlich reagent, absorbance 490 nm)
Format: cell-based
Parameters: endogenous in cells; host or cells: HeLa cells stimulated with interferon-gamma
Settings: Hela Human IDO-1 cellular assay
pIC50: −log10 of the molar value.
Measurement name: pIC50

Observe how each entry below is paired with its result.
Molecule	Assay target	Measurement name	Observed result
CCC1COCCN1c1ccc([C@H](COC)CC(=O)O)cc1Nc1cnc(OC)nc1 (single isomer, unassigned)	UniProt:P14902	pIC50	< 7.30
CCN(c1cc(F)c([C@@H](COC)CC(=O)O)cc1Nc1ccc(C#N)cc1)C1CCOCC1 (single isomer, unassigned)	UniProt:P14902	pIC50	> 8.30
CCOc1ncc(Nc2cc([C@H](CC)CNS(=O)(=O)C(F)(F)F)ccc2N(CC)C2CCOCC2)cn1	UniProt:P14902	pIC50	> 8.30
COCC(CC(=O)O)c1ccc(N(C)C2CCOCC2)c(Nc2ccc(C#N)cn2)c1 (single isomer, unassigned) [Example 874]	UniProt:P14902	pIC50	> 8.30
CCOc1ccc(Nc2cc(C(C)CC(=O)O)ccc2N(CC)C2CCOCC2)nn1 (single isomer, unassigned) [Example 631]	UniProt:P14902	pIC50	> 7.30

Input: Given the molecule CCC(CC(=O)O)c1cc(Nc2ccc(Cl)cc2)c(N(CC)C2CCOCC2)cc1F (single isomer, unassigned) , write its reported pIC50.
Output: > 8.30

Input: Given the molecule CCN(c1ccc(C(CC(=O)O)C2CC2)cc1Nc1ccc(F)cc1)C1CCS(=O)(=O)CC1 (single isomer, unassigned) , write its reported pIC50.
Output: > 8.30

Input: Given the molecule CCCN(c1ccc([C@H](COC)CC(=O)O)cc1Nc1ccc(C#N)cc1)C1CCOCC1 (single isomer, unassigned) , write its reported pIC50.
Output: > 8.30

Input: Given the molecule CCC(CC(=O)O)c1ccc(N(CC)C2CCOC2)c(NC(=O)Nc2ccc(Cl)cc2F)c1 (single isomer, unassigned) [Example 946 D2] , write its reported pIC50.
Output: > 8.30

Input: Given the molecule `CCN(c1ccc(C(CC)(CC)CC(=O)O)cc1NC(=O)Nc1ccc(C#N)cc1)C1CCOCC1` , write its reported pIC50.
Output: > 7.30

Input: Given the molecule CCOc1ncc(Nc2cc([C@@H](CC)CC(=O)O)ccc2N2C3CCC2CC(c2ccc(F)cc2)C3)cn1 (some centres unmarked) , write its reported pIC50.
Output: > 8.30

Input: Given the molecule COCCN(c1ccc(C(COC)CC(=O)O)cc1NC(=O)Nc1ccc(C)cc1)C1CCOCC1 (single isomer, unassigned) [Example 261 Enantiomer 1] , write its reported pIC50.
Output: < 7.30

Input: Given the molecule CCN(c1ccc([C@@H](COC)CC(=O)O)cc1NC(=O)Nc1ccc(Cl)cc1F)C1CCOCC1 (single isomer, unassigned) , write its reported pIC50.
Output: < 7.30

Input: Given the molecule CC[C@H](CC(=O)O)c1ccc(N(CC)C2CCOCC2)c(Nc2ccc(S(=O)(=O)CC)cc2)c1 (single isomer, unassigned) , write its reported pIC50.
Output: > 7.30

Input: Given the molecule CCC(CC(=O)O)c1ccc(N2CCN(C(=O)OC)CC2)c(Nc2ccc(C#N)cc2)c1 (single isomer, unassigned) [Example 668 Enantiomer 1] , write its reported pIC50.
Output: < 7.30

Input: Given the molecule CCC(CC(=O)O)c1ccc(N(CC)C2CCN(Cc3ccccc3)CC2)c(Nc2ccc(C#N)cc2)c1 (single isomer, unassigned) , write its reported pIC50.
Output: > 8.30

Input: Given the molecule CCN(c1ccc(C(CC(=O)O)C2CC2)cc1NC(=O)Nc1ccc(C)cc1)C1CCOCC1 (single isomer, unassigned) [Example 40 Enantiomer 1] , write its reported pIC50.
Output: > 8.30

Origin of the recorded values: patent US9790169B2
